Reference for the values: patent US20250152746A1

Recorded Human Primary Hepatocyte Editing % 500 for the following molecules
tested on: PCSK9 gene; experiment: PCSK9 gRNA/SpCas9 editing in primary human hepatocytes (Tables 2, 4); format: cell-based; conditions: 500 ng/RNA/mL; SpCas9 mRNA MS002 1:1 by weight
m = 2'-O-methyl; r = 2'-OH (RNA)

>  <molecule>
GA239: PCSK9 gRNA; protospacer CCGCCTGCCAGCGCCTGGCG (SEQ ID NO: 232) (nucleic acid, sugars from the 5' end m3 r94 m3, linkages s3 o93 s3 (s phosphorothioate, o phosphodiester), T or U not given here) guide: CCGCCUGCCAGCGCCUGGCGGUUUUAGAGCUAGAAAUAGCAAGUUAAAAUAAGGCUAGUCCGUUAUCAACUUGAAAAAGUGGCACCGAGUCGGUGCUUUU

>  <value-units>
%

>  <Human Primary Hepatocyte Editing % 500>
1.73

$$$$
>  <molecule>
GA226: PCSK9 gRNA; protospacer GGCTTTTCCGAATAAACTCC (SEQ ID NO: 220) (nucleic acid, sugars from the 5' end m3 r94 m3, linkages s3 o93 s3 (s phosphorothioate, o phosphodiester), T or U not given here) guide: GGCUUUUCCGAAUAAACUCCGUUUUAGAGCUAGAAAUAGCAAGUUAAAAUAAGGCUAGUCCGUUAUCAACUUGAAAAAGUGGCACCGAGUCGGUGCUUUU

>  <value-units>
%

>  <Human Primary Hepatocyte Editing % 500>
2.99

$$$$
>  <molecule>
GA220: PCSK9 gRNA; protospacer GTGCTCAACTGCCAAGGGAA (SEQ ID NO: 214) (nucleic acid, sugars from the 5' end m3 r94 m3, linkages s3 o93 s3 (s phosphorothioate, o phosphodiester), T or U not given here) guide: GUGCUCAACUGCCAAGGGAAGUUUUAGAGCUAGAAAUAGCAAGUUAAAAUAAGGCUAGUCCGUUAUCAACUUGAAAAAGUGGCACCGAGUCGGUGCUUUU

>  <value-units>
%

>  <Human Primary Hepatocyte Editing % 500>
9.12

$$$$
>  <molecule>
GA215: PCSK9 gRNA; protospacer CAGCGGCCGGGATGCCGGCG (SEQ ID NO: 209) (nucleic acid, sugars from the 5' end m3 r94 m3, linkages s3 o93 s3 (s phosphorothioate, o phosphodiester), T or U not given here) guide: CAGCGGCCGGGAUGCCGGCGGUUUUAGAGCUAGAAAUAGCAAGUUAAAAUAAGGCUAGUCCGUUAUCAACUUGAAAAAGUGGCACCGAGUCGGUGCUUUU

>  <value-units>
%

>  <Human Primary Hepatocyte Editing % 500>
1.01

$$$$
